Measured values drawn from ChEMBL document CHEMBL1122500 for this set.

compounds and their reported PC
- PROTOCOL SUMMARY: Partition coefficient value between phosphate buffer (0.1 M, pH 7.4) and octanol at room temperature
- Assay type: physicochemical
- CONDITION: octanol/water
Keep it simple and answer with nothing but the number.

COMPOUND	PC
O=[N+]([O-])c1nccn1[C@@H]1C=C[C@H](O)[C@@H](CO)O1	0.22
O=[N+]([O-])c1nccn1[C@H]1C=C[C@H](O)[C@@H](CO)O1	0.22
O=[N+]([O-])c1nccn1[C@H]1C=COC(CO)C1O (stereo partly specified)	0.24

Which value of PC has been reported for COCC(O)Cn1ccnc1[N+](=O)[O-] (stereo unspecified) [MISONIDAZOLE] in the records?
0.43

Which value of PC has been reported for O=[N+]([O-])c1nccn1[C@@H]1O[C@H](CO)[C@@H](O)[C@@H]1O in the records?
0.07

Which value of PC has been reported for O=[N+]([O-])c1nccn1[C@H]1O[C@H](CO)[C@@H](O)[C@@H]1O in the records?
0.11
